Tested on: MCF-7
Assay: MTT anti-proliferative assay, MCF-7
Type: cell-based, human
Details: IC50 MCF 10A/IC50 MCF-7, 72 h of exposure
Readout Label: selectivity index (SI) MCF-7

>>> print(df.to_string())
                                chem_smiles  assay_value
0  CCOC(=O)c1sc2ncnc(Nc3ccc(S(=O)(=O)NC(=N)N)cc3)c2c1C        44.86
1  Cc1cc(NS(=O)(=O)c2ccc(Nc3ncnc4sc5c(c34)CCCC5)cc2)no1         1.32
2  CCOC(=O)c1sc2ncnc(Nc3ccc(S(=O)(=O)Nc4cc(C)on4)cc3)c2c1C        25.62
3  CCOC(=O)c1sc2ncnc(Nc3ccc(S(=O)(=O)Nc4ncccn4)cc3)c2c1C        16.45
4  N=C(N)NS(=O)(=O)c1ccc(Nc2ncnc3sc4c(c23)CCCC4)cc1        12.79
5                CCOC(=O)c1sc2ncnc(Cl)c2c1C        27.20
